System: A. actinomycetemcomitans
experiment: Multi-species biofilm composition, absolute abundance (Geq/mL)
Format: cell-based
conditions-used: substrate 1% (w/v), repeated rinsing
measured-quantity: absolute abundance of A. actinomycetemcomitans (Aa), mean ± SD log (Geq/mL)

Would you please look over these solved cases?
compound | data-value
OC[C@H]1O[C@H](OC[C@H]2O[C@H](O[C@]3(CO)O[C@H](CO)[C@@H](O)[C@@H]3O)[C@H](O)[C@@H](O)[C@@H]2O)[C@H](O)[C@@H](O)[C@H]1O [D-raffinose, D-(+)-raffinose] | 9.14 ± 0.12 log (Geq/mL)
OC[C@H]1O[C@H](O[C@H]2O[C@H](CO)[C@@H](O)[C@H](O)[C@H]2O)[C@H](O)[C@@H](O)[C@@H]1O [D-trehalose, D-(+)-trehalose] | 9.28 ± 0.43 log (Geq/mL)
OC[C@H]1O[C@@H](O[C@H]2[C@H](O)[C@@H](O)[C@@H](O)O[C@@H]2CO)[C@H](O)[C@@H](O)[C@H]1O [D-lactose, α-D-lactose] | 9.44 ± 0.41 log (Geq/mL)

The record that follows has no absolute abundance of A. actinomycetemcomitans (Aa), mean ± SD log (Geq/mL) shown yet.
Quick one: absolute abundance of A. actinomycetemcomitans (Aa), mean ± SD log (Geq/mL) for CC(=O)N[C@H]1C(O)O[C@H](CO)[C@@H](O)[C@@H]1O (stereo partly drawn) [NADG, N-acetyl-D-glucosamine] ?
9.11 ± 0.2 log (Geq/mL)

###

Test system: F. nucleatum virulence genes
experiment: Virulence gene expression in multi-species biofilm (SYBR RT-qPCR)
Assay type: cell-based
conditions-used: substrate 1 M; relative to control = 1, 2^-ΔΔCt; n = 3
As shown below, each of these compounds has a reported fold change in hemolysin expression, geometric mean (95% C.I.) value.

Would you please look over these solved cases?
compound | data-value
OC[C@H]1O[C@H](OC[C@H]2O[C@H](O[C@]3(CO)O[C@H](CO)[C@@H](O)[C@@H]3O)[C@H](O)[C@@H](O)[C@@H]2O)[C@H](O)[C@@H](O)[C@H]1O [D-raffinose, D-(+)-raffinose] | 2.50 (1.07-5.83)^∗ fold
CC(=O)N[C@H]1C(O)O[C@H](CO)[C@@H](O)[C@@H]1O (stereo partly drawn) [NADG, N-acetyl-D-glucosamine] | 1.90 (1.29-2.79) fold
OC[C@H]1O[C@@H](O[C@H]2[C@H](O)[C@@H](O)[C@@H](O)O[C@@H]2CO)[C@H](O)[C@@H](O)[C@H]1O [D-lactose, α-D-lactose] | 6.34 (1.36-29.47)^∗ fold

The record that follows has no fold change in hemolysin expression, geometric mean (95% C.I.) shown yet.
Quick one: fold change in hemolysin expression, geometric mean (95% C.I.) for OC[C@H]1O[C@H](O[C@H]2O[C@H](CO)[C@@H](O)[C@H](O)[C@H]2O)[C@H](O)[C@@H](O)[C@@H]1O [D-trehalose, D-(+)-trehalose] ?
12.15 (7.73-19.10)^∗ fold

###

As shown below, each of these compounds has a reported fold change in aae expression, geometric mean (95% C.I.) value.
Tested on: A. actinomycetemcomitans virulence genes
experiment: Virulence gene expression in multi-species biofilm (SYBR RT-qPCR)
Assay type: cell-based
conditions-used: lower part of Table 6a, substrate 1%(w/v); relative to control = 1

Would you please look over these solved cases?
compound | data-value
CC(=O)N[C@H]1C(O)O[C@H](CO)[C@@H](O)[C@@H]1O (stereo partly drawn) [NADG, N-acetyl-D-glucosamine] | 1.55 (1.18-2.03) fold
OC[C@H]1O[C@H](OC[C@H]2O[C@H](O[C@]3(CO)O[C@H](CO)[C@@H](O)[C@@H]3O)[C@H](O)[C@@H](O)[C@@H]2O)[C@H](O)[C@@H](O)[C@H]1O [D-raffinose, D-(+)-raffinose] | 1.34 (0.38-4.68) fold
OC[C@H]1O[C@@H](O[C@H]2[C@H](O)[C@@H](O)[C@@H](O)O[C@@H]2CO)[C@H](O)[C@@H](O)[C@H]1O [D-lactose, α-D-lactose] | 1.36 (0.70-2.67) fold

What is its fold change in aae expression, geometric mean (95% C.I.) for A. actinomycetemcomitans virulence genes? Entry: OC[C@H]1O[C@H](O[C@H]2O[C@H](CO)[C@@H](O)[C@H](O)[C@H]2O)[C@H](O)[C@@H](O)[C@@H]1O [D-trehalose, D-(+)-trehalose]
0.95 (0.33-2.78) fold

###

System: S. oralis
experiment: Multi-species biofilm composition, absolute abundance (Geq/mL)
Format: cell-based
conditions-used: substrate 1 M in PBS, repeated rinsing, n = 3
Description: Biofilms are grown vertically on Calcium Deficient Hydroxyapatite (CAD-HA) disks (Hitemco Medical, Old Bethpage, USA) using the Amsterdam Active Adhesion model. Biofilms are allowed to establish during 24 h (37° C., 170 rpm) under microaerophilic conditions (6% O2, 7% CO2, 7% H2, 80% N2). […]
As shown below, each of these compounds has a reported absolute abundance of S. oralis, mean ± SD log (Geq/mL) value.

Would you please look over these solved cases?
compound | target-system | data-value
OC[C@H]1O[C@H](OC[C@H]2O[C@H](O[C@]3(CO)O[C@H](CO)[C@@H](O)[C@@H]3O)[C@H](O)[C@@H](O)[C@@H]2O)[C@H](O)[C@@H](O)[C@H]1O [D-raffinose, D-(+)-raffinose] | S. oralis | 8.52 ± 0.17^∗ log (Geq/mL)
OC[C@H]1O[C@H](O[C@H]2O[C@H](CO)[C@@H](O)[C@H](O)[C@H]2O)[C@H](O)[C@@H](O)[C@@H]1O [D-trehalose, D-(+)-trehalose] | S. oralis | 6.71 ± 0.48 log (Geq/mL)
OC[C@H]1O[C@@H](O[C@H]2[C@H](O)[C@@H](O)[C@@H](O)O[C@@H]2CO)[C@H](O)[C@@H](O)[C@H]1O | S. oralis | 7.45 ± 0.46 log (Geq/mL)

The record that follows has no absolute abundance of S. oralis, mean ± SD log (Geq/mL) shown yet.
What is its absolute abundance of S. oralis, mean ± SD log (Geq/mL) for S. oralis? Entry: CC(=O)N[C@H]1C(O)O[C@H](CO)[C@@H](O)[C@@H]1O (stereo partly shown)
7.96 ± 0.59 log (Geq/mL)

###

Tested on: multi-species biofilm (beneficial/commensal species, periodontal pathogens, cariogenic pathogens)
experiment: Multi-species biofilm composition, relative proportions and group changes
Assay type: cell-based
conditions-used: Table 3, separate experiments; concentration not given
measured-quantity: relative proportion of periodontal pathogens in biofilm

molecule | data-value
CC(=O)N[C@H]1C(O)O[C@H](CO)[C@@H](O)[C@@H]1O (stereo partly shown) | 39.27 (+/- 7.98) % (Geq/mL)
OC[C@H]1O[C@H](OC[C@H]2O[C@H](O[C@]3(CO)O[C@H](CO)[C@@H](O)[C@@H]3O)[C@H](O)[C@@H](O)[C@@H]2O)[C@H](O)[C@@H](O)[C@H]1O [D-raffinose, D-(+)-raffinose] | 35.46 (+/- 1.82) % (Geq/mL)
OC[C@H]1O[C@@H](O[C@H]2[C@H](O)[C@@H](O)[C@@H](O)O[C@@H]2CO)[C@H](O)[C@@H](O)[C@H]1O | 35.65 (+/- 9.88) % (Geq/mL)

Quick one: relative proportion of periodontal pathogens in biofilm for OC[C@H]1O[C@H](O[C@H]2O[C@H](CO)[C@@H](O)[C@H](O)[C@H]2O)[C@H](O)[C@@H](O)[C@@H]1O [D-trehalose, D-(+)-trehalose] ?
26.23 (+/- 2.88) % (Geq/mL)

###

System: A. naeslundii
experiment: Multi-species biofilm composition, absolute abundance (Geq/mL)
Assay type: cell-based
conditions-used: substrate 1% (w/v), repeated rinsing
As shown below, each of these compounds has a reported absolute abundance of A. naeslundii (An), mean ± SD log (Geq/mL) value.

compound | target-system | data-value
CC(=O)N[C@H]1C(O)O[C@H](CO)[C@@H](O)[C@@H]1O (stereo partly drawn) [NADG, N-acetyl-D-glucosamine] | A. naeslundii | 7.71 ± 0.12 log (Geq/mL)

Quick one: absolute abundance of A. naeslundii (An), mean ± SD log (Geq/mL) for OC[C@H]1O[C@H](O[C@H]2O[C@H](CO)[C@@H](O)[C@H](O)[C@H]2O)[C@H](O)[C@@H](O)[C@@H]1O [D-trehalose, D-(+)-trehalose] ?
7.6 ± 0.15 log (Geq/mL)

Another compound to look at: OC[C@H]1O[C@@H](O[C@H]2[C@H](O)[C@@H](O)[C@@H](O)O[C@@H]2CO)[C@H](O)[C@@H](O)[C@H]1O [D-lactose, α-D-lactose]
7.75 ± 0.24 log (Geq/mL)

Another compound to look at: OC[C@H]1O[C@H](OC[C@H]2O[C@H](O[C@]3(CO)O[C@H](CO)[C@@H](O)[C@@H]3O)[C@H](O)[C@@H](O)[C@@H]2O)[C@H](O)[C@@H](O)[C@H]1O [D-raffinose, D-(+)-raffinose]
7.62 ± 0.08 log (Geq/mL)

This collection of values is drawn from patent US20230346670A1.
